Origin of the recorded values: ChEMBL document CHEMBL1201862

# Test system: COLO 205
# ASSAY NAME: NCI tumour cell line growth inhibition, 48 h
The source made the active and inactive calls. Rule as the data show it: active = GI50 up to about 1.1 µM and inactive = higher.
PROPERTY MEASURED: GI50

Examples with their reported GI50 follow.
COc1cc2c(ccc3c4cc(OC)c(OC)cc4c[n+](C)c23)cc1O [FAGARONINE]: 15 µM (inactive)
C[C@]12CC[C@H](O)CC1=CC[C@@H]1[C@@H]2CC[C@]2(C)C(=N/O)/C(=C/c3ccc([N+](=O)[O-])cc3)C[C@@H]12: 3.53 µM (inactive)
Cc1c(S(=O)(=O)O)ccc(/N=N/c2c(O)c(C(=O)O)cc3ccccc23)c1Cl: > 100 µM (inactive)

Form: Entry = O=C(Nc1nnc(-c2c(Cl)c(Cl)c(Cl)c(Cl)c2-c2nc3cc(C(=O)c4ccccc4)ccc3[nH]2)o1)c1ccccc1 | System = COLO 205 | GI50 = ____ 12.2 µM (inactive)

Form: Entry = Nc1ncnc(NC2C=C(CO)C(O)C2O)c1[N+](=O)[O-] (centres undefined) | System = COLO 205 | GI50 = ____ 60.3 µM (inactive)

Form: Entry = CC1=CC[C@H](C(C)C)C(C(O)[C@@H](C)O[Si](c2ccccc2)(c2ccccc2)C(C)(C)C)C1=O (some centres undefined) | System = COLO 205 | GI50 = ____ 17.2 µM (inactive)
